target: T1, Recombinant human bFGF (human, UniProt P09038 143-288, limits assumed); experiment: competition ELISA, coated bFGF, competitor Fc-FGFR1
T1 construct: Bought (Sigma); also called hFGF-2; human basic fibroblast growth factor
T1 sequence (P09038 143-288 limits assumed): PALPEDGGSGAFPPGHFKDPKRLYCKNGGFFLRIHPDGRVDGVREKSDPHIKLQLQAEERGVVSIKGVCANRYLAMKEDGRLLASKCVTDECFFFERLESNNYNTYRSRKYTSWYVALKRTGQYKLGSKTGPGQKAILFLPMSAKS
# IC50 per record follows

binder: Nb-FF2 (VHH, Bivalent monospecific tandem VHH for bFGF; with c-myc and histidine tag) QVQLVESGGGLVQPGGSLRLSCAASGTEDGRLLTLGGSWFRQAPGQGLEAVAAIGAGDRGGATYYADSVKGRFTISRDNSKNTLYLQMNSLRAEDTAVYYCTALYERQPQLAATKVARKWGQGTLVTVSSAHHSEDPSSKAPKAPAQVQLVESGGGLVQPGGSLRLSCAASGTEDGRLLTLGGSWFRQAPGQGLEAVAAIGAGDRGGATYYADSVKGRFTISRDNSKNTLYLQMNSLRAEDTAVYYCTALYERQPQLAATKVARKWGQGTLVTVSSAAAGSEQKLISEEDLNSHHHHHH
IC50 [nM]: 53.5
//
binder: Nb-FV1 (bispecific antibody, Bispecific tandem VHH (bFGF and VEGF); with c-myc and histidine tag) QVQLVESGGGLVQPGGSLRLSCAASGTEDGRLLTLGGSWFRQAPGQGLEAVAAIGAGDRGGATYYADSVKGRFTISRDNSKNTLYLQMNSLRAEDTAVYYCTALYERQPQLAATKVARKWGQGTLVTVSSAHHSEDPSSKAPKAPAQVQLVESGGGLVQPGGSLRLSCAASGNSAEDRLYNSYTWFRQAPGQGLEAVAAISSHFSAGLTYYADSVKGRFTISRDNSKNTLYLQMNSLRAEDTAVYYCEITSHASHNDAWSTPRTVWGQGTLVTVSSAAAGSEQKLISEEDLNSHHHHHH
IC50 [nM]: 131
//
binder: Nb-VF3 (bispecific antibody, Bispecific tandem VHH (VEGF and bFGF); with c-myc and histidine tag) QVQLVESGGGLVQPGGSLRLSCAASGNSAEDRLYNSYTWFRQAPGQGLEAVAAISSHFSAGLTYYADSVKGRFTISRDNSKNTLYLQMNSLRAEDTAVYYCEITSHASHNDAWSTPRTVWGQGTLVTVSSAHHSEDPSSKAPKAPAQVQLVESGGGLVQPGGSLRLSCAASGTEDGRLLTLGGSWFRQAPGQGLEAVAAIGAGDRGGATYYADSVKGRFTISRDNSKNTLYLQMNSLRAEDTAVYYCTALYERQPQLAATKVARKWGQGTLVTVSSAAAGSEQKLISEEDLNSHHHHHH
IC50 [nM]: 136
//
binder: Nb-F3 (VHH, carries the C-terminal c-myc tracer peptide and histidine tag; also called VHH Nb-F3) VHH: QVQLVESGGGLVQPGGSLRLSCAASGTEDGRLLTLGGSWFRQAPGQGLEAVAAIGAGDRGGATYYADSVKGRFTISRDNSKNTLYLQMNSLRAEDTAVYYCTALYERQPQLAATKVARKWGQGTLVTVSS
IC50 [nM]: 134
